Test system: HCT-116 colon
Assay: NCI-60 one-dose screen, 48 h (100 = growth as untreated, 0 = no growth, -100 = all killed)
Conditions: 10 µM unless noted
About 83,000 compounds went through this panel and 20% of them were active in at least one assay; those are over-represented in the sample as a whole.

Molecule | growth [%]
CCN(CC)CCNc1c(C)cc(CO)c(Cl)c1C | 104
CN1CCN(Cc2ccc(NC(=O)c3cncc(C#Cc4cnc5cccnn45)c3)cc2C(F)(F)F)CC1 | 3.88
CC(=O)Nc1ccc(Cl)cc1Cl | 105
COCCOCCOCc1n(Cc2ccc3ccccc3n2)c2ccccc2[n+]1Cc1ccc2ccccc2c1 | 7.79
N=C(N)c1ccc(-c2ccc(-c3cc(Cl)cc(Cl)c3)o2)nc1 | -74
CSCCC1NC(=O)C(C(C)=Nc2ccccc2)=C1O (stereo not given) | 107
C/C(=N\NC(=S)Nc1ccccc1)c1ccccn1 | 6.94
NC(=O)Nc1ccc2ncnc(Nc3cccc(O)c3)c2c1 | 109
CCCCCCCCCCCCCCCc1cc(O)ccc1[N+](=O)[O-] | 64.7
O=C1c2ccccc2C(=O)c2c1oc1ccc3ccccc3c21 | 62.2
CC1CN(CCCOC(=O)Nc2ccc(Cl)cc2)CCN1C(C)(C)C (stereo not given) | 100
Nc1nonc1-c1nc2ccccc2n1Cc1ccc(F)cc1 | 30.4
NC(=Nc1ccccc1)SCCCSC(N)=Nc1ccccc1 | 90.5
CN1CCN(Cc2ccc(NC(=O)c3cncc(C#Cc4ncc5ccccn45)c3)cc2C(F)(F)F)CC1 | -51.5
CCCCn1cnc(-c2cc(-c3ccccc3)cc(C(F)(F)F)c2)n1 | 96.7
CC(=O)Nc1nonc1-c1nc2ccccc2n1Cc1ccc(C(C)(C)C)cc1 | 66.9
Cc1ccccc1N1C(c2ccccc2)=NNC12C=CC(=O)c1c(O)cccc12 (stereo not given) | 66.5
C=CCn1c(SCC(=O)Nc2ccc(C(=O)/C=C/c3ccccc3)cc2)nnc1-c1ccc(OC)c(OC)c1 | -91.7
COc1cc2c(cc1OC)C(=O)OC2 | 111
COc1cccc(NC(=O)[C@H](C(C)C)n2c(=O)[nH]c3ccccc3c2=O)c1 | 113
CCCCCCCCCCCCCCC(C(=O)OCC)C(=O)OCC | 109
COc1cccc2nc(Nc3cccc(NC(=O)c4ccc(N5CCN(C)CC5)c(C(F)(F)F)c4)c3)ccc12 | 6.56
Cc1cc(C)c2c(n1)sc1c(Nc3ccc(Cl)cc3Cl)ncnc12 | 24.9
CC(=O)c1cccc(Nc2ncnc3ccc(NC(=O)c4ccco4)cc23)c1 | 91
O=C(O)C1[S][Sb]([CH](C(=O)O)[CH](C(=O)O)[Sb]2[S]C(C(=O)O)C(C(=O)O)[S]2)[S]C1C(=O)O (stereo not given) | 100
C=C(C)c1ccc(/C=N/NC(N)=S)cc1 | 84.5
CCOC(CN1CCN(CC(C)C(=O)c2ccccc2)CC1)c1ccccc1 (stereo not given) | 109
O=c1[nH]c2ccccc2n2cc3cccnc3c12 | 33
CN=C1C=C/C(=N/N=c2/ccn(O)cc2C)C=C1C | 90.9
COc1ccc(-c2nc3ccc(Cc4ccc5nc(-c6ccc(OC)cc6)[nH]c5c4)cc3[nH]2)cc1 | 39.4
C/C(CC(=O)NNc1ccc([N+](=O)[O-])cc1)=N\Nc1ccc([N+](=O)[O-])cc1 | 47.3
CC(C)(C)c1ccc(Cn2c(-c3nonc3N)nc3ccccc32)cc1 | 62.6
CCCCC(CCc1ccccn1)C(=O)c1ccccc1 (stereo not given) | 109
[O-]/[N+](=C\c1ccccc1)CC1(O)CCCCC1 | 117
CCC(=O)NC(O)C(Cl)(Cl)C(C)Cl (stereo not given) | 103
OC(c1cc2c(Cl)cc(Cl)cc2c2cc(C(F)(F)F)ccc12)C1CCCCN1 (stereo not given) | -85.9
CCc1ccc(Nc2cc(C)c3ccc(O)cc3n2)cc1 | 56.8
Clc1cc(Br)ccc1-c1ccc(CNCC2CCNCC2)o1 | 40.9
COc1cc(C2CC(c3ccc(Nc4ccnc5cc(Cl)ccc45)cc3)=NN2c2ccccc2)cc(OC)c1OC (stereo not given) | 54.9
O=C(Nc1ccc2ncnc(Nc3ccc(F)c(Cl)c3)c2c1)c1cccs1 | 54.7
CCc1ccc2c(c1)N(CCO)C1=C(C(=O)OC1)C2c1cccc(Br)c1 (stereo not given) | 26.9
O=C(NO)c1ccc(NCc2csc3ccccc23)cc1 | 34.4
CCNC(=S)N(Cc1ccccc1)Cc1ccccc1 | 110
CCOC(=O)C(=CNc1ccccc1Cl)C(=O)OCC | 97.9
COc1ccc(/C=C(/C(=O)N2CCN(c3ccccc3)CC2)c2cc(OC)c(OC)c(OC)c2)cc1O | 6.78
